cell viability values by entry
System: P12-Ichikawa
method.notes: cell viability relative to DMSO control; higher = less cytotoxic
setup.conditions: RPMI 5 mM glucose + 10% dialyzed FBS; 48 h; 5.12 µM

{"columns": ["compound", "tested.system", "result.unit", "cell viability"],
 "data": [
  ["C[N]1C=NC=C1[C@@](N)(C2=CC=C(Cl)C=C2)C3=CC=C4N(C)C(=O)\\C=C(\\C5=CC=CC(=C5)Cl)C4=C3", "P12-Ichikawa", "%", 69.6],
  ["COc1cc(N2CCC(C(N)=O)CC2)ccc1Nc1nc(N)c(Cl)c(Nc2ccccc2[S+](=O)([O-])C(C)C)n1", "P12-Ichikawa", "%", 74.9],
  ["O=C(O)[C@H](Cc1c[nH]c2ccccc12)N1C(=O)c2ccccc2C1=O", "P12-Ichikawa", "%", 95],
  ["O=C(NC1CCOCC1)c1ccc(-c2cc(-c3c[nH]nc3-c3ccccn3)ccn2)cc1", "P12-Ichikawa", "%", 88.4],
  ["O=C(NC1CCNCC1)c1n[nH]cc1NC(=O)c1c(Cl)cccc1Cl", "P12-Ichikawa", "%", 13.7],
  ["COC[C@H](NC(=O)c1cnc(C)s1)C(=O)N[C@@H](COC)C(=O)N[C@@H](Cc1ccccc1)C(=O)[C@@]1(C)CO1", "P12-Ichikawa", "%", 1.67],
  ["CCCCN(CCCC)CCC(O)c1cc2c(Cl)cc(Cl)cc2c2cc(C(F)(F)F)ccc12 (stereo not given)", "P12-Ichikawa", "%", 131],
  ["CC[C@H]1OC(=O)[C@H](C)[C@@H](O[C@H]2C[C@@](C)(OC)[C@@H](O)[C@H](C)O2)[C@H](C)[C@@H](O[C@@H]2O[C@@H](C)C[C@H](N(C)C)[C@H]2O)[C@](C)(O)C[C@@H](C)C(=O)[C@H](C)[C@@H](O)[C@]1(C)O", "P12-Ichikawa", "%", 89.8],
  ["CSC1=CC(=CC=C1)NC2=NC3=C(C=N2)/C=C(C(=O)N3C)/C4=C(Cl)C=CC=C4Cl", "P12-Ichikawa", "%", 109],
  ["CC(C)(C)/[N+]([O-])=C/c1ccc([S+](=O)([O-])[O][Na])cc1[S+](=O)([O-])[O][Na]", "P12-Ichikawa", "%", 120],
  ["Nc1nc(-c2nn(Cc3ccccc3F)c3ncccc23)nc(N)c1N1CCOCC1", "P12-Ichikawa", "%", 104],
  ["CC(=O)N1CCN(c2ccc(OCc3nn(C)c(C)c3-c3cccc4c(CCCOc5cc(C)c(Cl)c(C)c5)c(C(=O)O)n(Cc5cccnc5)c34)cc2)CC1", "P12-Ichikawa", "%", 118],
  ["Cc1cc(O)c2c3c4c(cc(O)c13)C(C)(C)C(=O)c1c(O)cc(O)c(c1-4)C2=O", "P12-Ichikawa", "%", 105],
  ["Clc1cccc(-c2nnnn2Cc2cccnc2)c1Cl", "P12-Ichikawa", "%", 61.8],
  ["CN1C(=O)\\C(=C/C(=C1/NC2=C(F)C=C(I)C=C2)C(=O)NOCCO)C", "P12-Ichikawa", "%", 101]
]}
